B1: LINE1-full (parent)
chain: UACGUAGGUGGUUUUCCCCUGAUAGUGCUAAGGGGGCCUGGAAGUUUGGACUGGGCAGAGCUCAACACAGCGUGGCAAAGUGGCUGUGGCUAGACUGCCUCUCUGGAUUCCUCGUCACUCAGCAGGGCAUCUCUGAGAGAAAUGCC

variants of: B1; test: self-cleavage, relative activity (ratio to wild type); higher = more cleavage; in vitro, sequencing; the parent is a self-cleaving ribozyme
Cut-off 0.4 on self-cleavage, inclusive. At or above means rule met; below means rule not met.

// known answers, use as guide
[
  {
    "mutant": "U13G",
    "class assignment": "rule met"
  },
  {
    "mutant": "A43G A94G",
    "class assignment": "rule not met"
  },
  {
    "mutant": "U91G A140G",
    "class assignment": "rule not met"
  },
  {
    "mutant": "C37U G55A",
    "class assignment": "rule not met"
  }
]

Query variant follows.
Task item: Check this variant for self-cleavage at or above 0.4: U5A U100C
Reply: rule met
